Where do the numbers come from? From ChEMBL document CHEMBL5579829.

# subject-of-test: Protein cereblon/Cyclin-dependent kinase 2 (Homo sapiens, UniProt P24941+Q96SW2)
# protocol-details: Protac activity at CRBN/CDK2 in human HL-60 cells assessed as induction of CDK2 degradation by Western blot analysis
# Assay type: cell-based
Below, each of the molecules is paired with its reported DC50 value.

Worked examples, 2 molecules total:
[
  {
    "molecule": "O=C1CCC(N2C(=O)c3ccc(N4CC(N5CCC(NC(=O)c6n[nH]cc6NC(=O)c6c(Cl)cccc6Cl)CC5)C4)cc3C2=O)C(=O)N1 (stereo not drawn)",
    "DC50": "26.1 nM"
  },
  {
    "molecule": "O=C1CCC(N2C(=O)c3ccc(N4CCC(CN5CCN(Cc6ccc(NC(=O)c7n[nH]cc7Nc7ncnc8[nH]ccc78)cc6)CC5)CC4)cc3C2=O)C(=O)N1 (stereo not drawn)",
    "DC50": "12.7 nM"
  }
]

Now turn to the next molecule.
**Query** Param readout= DC50; system= Protein cereblon/Cyclin-dependent kinase 2 (Homo sapiens, UniProt P24941+Q96SW2); entry= O=C1CCC(N2C(=O)c3ccc(N4CCC(N5CCC(NC(=O)c6n[nH]cc6NC(=O)c6c(Cl)cccc6Cl)CC5)C4)cc3C2=O)C(=O)N1 (stereo not drawn) ; returns value.
**Result** 7.13 nM
